# assay_procedure: Functional Dkk1-LRP5-TCF-Luciferase Assay in U2OS Cells (table columns: A=MAX FOLD Induction/DMSO CONTROL; B=fold induction @ 2.0 uM; C=fold induction @ 20.0 uM)
# Type: cell-based, Human
# test_parameters: Homo sapiens, U2OS; 2.0 uM compound
experimental_readout: fold induction at 2 µM
The reply should be a number, written without any unit.

// known answers, use as guide
>>> observed_result("c1ccc2cc(-c3ccnc4c3nc(-c3cccc5ccccc35)n4C3CCNCC3)ccc2c1")
1.39
>>> observed_result("O=[N+]([O-])c1cc(-c2nc3cc(-c4ccc5ccccc5c4)cnc3n2C2CCNCC2)ccc1N1CCOCC1")
1.01
>>> observed_result("CC(C)c1nc2cc(-c3ccc4ccccc4c3)cnc2n1C1CCNCC1")
1.44
>>> observed_result("Oc1cccc(-c2nc3c(-c4ccc5ccccc5c4)ccnc3n2C2CCNCC2)c1")
1.58
>>> observed_result("Clc1ccccc1-c1nc2c(-c3ccc4ccccc4c3)ccnc2n1C1CCNCC1")
1.36

fold induction at 2 µM measured on c1csc(-c2nc3cc(-c4ccc5ccccc5c4)cnc3n2C2CCNCC2)c1 = 1.04

fold induction at 2 µM measured on CC(C)(C)c1ccc(-c2nc3c(-c4ccc5ccccc5c4)ccnc3n2C2CCNCC2)cc1 = 1.88

fold induction at 2 µM measured on c1ccc2cc(-c3ccnc4c3nc(-c3cccc5ncccc35)n4C3CCNCC3)ccc2c1 = 1.33

fold induction at 2 µM measured on c1ccc2cc(-c3ccnc4c3nc(-c3ccsc3)n4C3CCNCC3)ccc2c1 = 1.17

fold induction at 2 µM measured on Brc1ccccc1-c1nc2c(-c3ccc4ccccc4c3)ccnc2n1C1CCNCC1 = 1.6
